Attribution: patent US11524955B2

# UniProt:O43318: pIC50 values follow
# Sequence (O43318 1-303 limits assumed): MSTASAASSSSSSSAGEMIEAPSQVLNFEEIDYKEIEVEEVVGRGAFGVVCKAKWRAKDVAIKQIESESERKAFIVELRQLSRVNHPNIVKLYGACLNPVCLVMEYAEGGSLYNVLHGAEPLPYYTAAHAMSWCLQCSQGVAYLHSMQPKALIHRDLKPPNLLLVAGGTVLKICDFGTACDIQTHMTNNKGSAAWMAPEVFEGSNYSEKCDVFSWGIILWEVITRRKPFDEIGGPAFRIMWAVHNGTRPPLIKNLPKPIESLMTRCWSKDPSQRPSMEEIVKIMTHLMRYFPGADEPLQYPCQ
pIC50: −log10 of the molar value.
Measure Name: pIC50

Sample Smiles	Measure Name	Measured Result
NC(=O)[C@@H]1[C@H](Nc2nc(Nc3cccc(C(=O)N4CCCC4)c3)ncc2-c2cccnc2)[C@H]2C=C[C@@H]1C2	pIC50	6.64
N#Cc1cccc(-c2cnc(Nc3cccc(C(=O)N4CCCC4)c3)nc2N[C@H]2[C@@H](C(N)=O)[C@@H]3C=C[C@H]2C3)c1	pIC50	6.98
N#Cc1cccc(-c2cnc(Nc3cccc(C(=O)N4CCCC4)c3)nc2N[C@@H]2CCCC[C@@H]2C(N)=O)c1	pIC50	7.17
